Entry source: paper PMC9748978

Consider the following molecules and their measured K m – skin partition coefficient readings.
type: in vitro ADME; conditions: solution in 70% ethanol, pig skin

In [3]: df
Out[3]:
                                   molecule  result
0  CC(C)Cc1ccc(C(C)C(=O)O)cc1.CCCOC(=O)[C@@H](N)Cc1c[nH]c2ccccc12 [[TrpOPr][IBU], L-tryptophan propyl ester ibuprofenate]   0.208
1  CC(C)Cc1ccc(C(C)C(=O)O)cc1 (racemic) [[IBU], (R,S)-Ibuprofen, reference compound]   0.281
2  CC(C)Cc1ccc(C(C)C(=O)O)cc1.CCCOC(=O)[C@@H](N)Cc1ccccc1 (stereo not shown) [[PheOPr][IBU]]   0.200

Now consider a different molecule.
Lab book: K m – skin partition coefficient of CC(C)Cc1ccc(C(C)C(=O)O)cc1.CCCOC(=O)[C@@H](N)Cc1ccc(O)cc1 [[TyrOPr][IBU], L-tyrosine propyl ester ibuprofenate] noted as 0.229

* * *

The reader will find reported CUM – cumulative permeation mass values listed item by item below.
format: in vitro ADME; settings: 24 h, solution in 70% ethanol, pig skin
Kindly provide the numeric value in μg cm^−2 only, without the unit symbol.

>>> df
                                   compound                 measured_quantity  numeric_readout
0  CC(C)Cc1ccc(C(C)C(=O)O)cc1.CCCOC(=O)[C@@H](N)Cc1c[nH]c2ccccc12 [[TrpOPr][IBU], L-tryptophan propyl ester ibuprofenate]  CUM – cumulative permeation mass           319.22
1  CC(C)Cc1ccc(C(C)C(=O)O)cc1.CCCOC(=O)[C@@H](N)Cc1ccc(O)cc1 [[TyrOPr][IBU], L-tyrosine propyl ester ibuprofenate]  CUM – cumulative permeation mass           284.27
2  CC(C)Cc1ccc(C(C)C(=O)O)cc1.CCCOC(=O)[C@@H](N)Cc1ccccc1 (stereo not shown) [[PheOPr][IBU]]  CUM – cumulative permeation mass           454.86

Memo: CC(C)Cc1ccc(C(C)C(=O)O)cc1 (racemic) [[IBU], (R,S)-Ibuprofen, reference compound] , reported CUM – cumulative permeation mass: 133.35

* * *

format: in vitro ADME; conditions: solution in 70% ethanol, pig skin
Measured Quantity: L T – lag time (min)
API: value field is a number in min; no unit string.

>>> df
                                   compound  numeric_readout
0  CC(C)Cc1ccc(C(C)C(=O)O)cc1 (racemic) [[IBU], (R,S)-Ibuprofen, reference compound]            2.582
1  CC(C)Cc1ccc(C(C)C(=O)O)cc1.CCCOC(=O)[C@@H](N)Cc1c[nH]c2ccccc12 [[TrpOPr][IBU], L-tryptophan propyl ester ibuprofenate]            2.179
2  CC(C)Cc1ccc(C(C)C(=O)O)cc1.CCCOC(=O)[C@@H](N)Cc1ccc(O)cc1 [[TyrOPr][IBU], L-tyrosine propyl ester ibuprofenate]            2.133

Reported L T – lag time ( CC(C)Cc1ccc(C(C)C(=O)O)cc1.CCCOC(=O)[C@@H](N)Cc1ccccc1 (stereo not shown) [[PheOPr][IBU]] ) = 1.705

* * *

type: in vitro ADME; conditions: solution in 70% ethanol, pig skin
The entries below come with measured J SS – steady-state flux values attached.
Mention the unit after the number when you answer.

>>> print(df.to_string())
                                   compound          result
0  CC(C)Cc1ccc(C(C)C(=O)O)cc1.CCCOC(=O)[C@@H](N)Cc1ccccc1 (stereo not shown) [[PheOPr][IBU]]  28.01 μg cm^−2
1  CC(C)Cc1ccc(C(C)C(=O)O)cc1.CCCOC(=O)[C@@H](N)Cc1ccc(O)cc1 [[TyrOPr][IBU], L-tyrosine propyl ester ibuprofenate]  25.57 μg cm^−2
2  CC(C)Cc1ccc(C(C)C(=O)O)cc1 (racemic) [[IBU], (R,S)-Ibuprofen, reference compound]  25.87 μg cm^−2

Query compound follows.
In plain terms, CC(C)Cc1ccc(C(C)C(=O)O)cc1.CCCOC(=O)[C@@H](N)Cc1c[nH]c2ccccc12 [[TrpOPr][IBU], L-tryptophan propyl ester ibuprofenate] has a documented J SS – steady-state flux of 22.72 μg cm^−2

* * *

Reported Q – the percentage of the applied dose after 24 h by item:
type: in vitro ADME; settings: 24 h, solution in 70% ethanol, pig skin
# value in %; strip the unit string

In [3]: df
Out[3]:
                                   compound  numeric_readout
0  CC(C)Cc1ccc(C(C)C(=O)O)cc1.CCCOC(=O)[C@@H](N)Cc1c[nH]c2ccccc12 [[TrpOPr][IBU], L-tryptophan propyl ester ibuprofenate]            12.42
1  CC(C)Cc1ccc(C(C)C(=O)O)cc1 (racemic) [[IBU], (R,S)-Ibuprofen, reference compound]             9.33

Measured Q – the percentage of the applied dose after 24 h, CC(C)Cc1ccc(C(C)C(=O)O)cc1.CCCOC(=O)[C@@H](N)Cc1ccccc1 (stereo not shown) [[PheOPr][IBU]] : 15.80

Item: CC(C)Cc1ccc(C(C)C(=O)O)cc1.CCCOC(=O)[C@@H](N)Cc1ccc(O)cc1 [[TyrOPr][IBU], L-tyrosine propyl ester ibuprofenate] | Q – the percentage of the applied dose after 24 h: 9.51

* * *

test: Accumulation in the skin after 24 h penetration; assay type: in vitro ADME, pig; conditions: after 24 h of penetration from solution, porcine skin
accumulation in the skin listing for selected compounds.
Lab book: enter the figure in μg IBU per g skin, no units written.

// worked examples, accumulation in the skin included
>>> df
                                   compound         measured_quantity               unit  numeric_readout
0  CC(C)Cc1ccc(C(C)C(=O)O)cc1 (racemic) [[IBU], (R,S)-Ibuprofen, reference compound]  accumulation in the skin  μg IBU per g skin           725.49
1  CC(C)Cc1ccc(C(C)C(=O)O)cc1.CCCOC(=O)[C@@H](N)Cc1ccc(O)cc1 [[TyrOPr][IBU], L-tyrosine propyl ester ibuprofenate]  accumulation in the skin  μg IBU per g skin           609.35
2  CC(C)Cc1ccc(C(C)C(=O)O)cc1.CCCOC(=O)[C@@H](N)Cc1ccccc1 (stereo not shown) [[PheOPr][IBU]]  accumulation in the skin  μg IBU per g skin           602.86

Shift focus to the following entry.
Value of accumulation in the skin reported for the compound CC(C)Cc1ccc(C(C)C(=O)O)cc1.CCCOC(=O)[C@@H](N)Cc1c[nH]c2ccccc12 [[TrpOPr][IBU], L-tryptophan propyl ester ibuprofenate] is 595.41
